Please go through the items and note down their crop damage rating CORN.
Test system: field corn (Zea mays L., var. Dekalb 535, CORN)
MEASUREMENT PROTOCOL: Greenhouse herbicide screen, pre-emerge application, crop damage rating
Format: in vivo
MEASUREMENT CONTEXT: PRE emergent, 63 g ai/ha, 14 days after application, rating scale 0-100
Give bare numbers.

Below: 5 compounds and their reported crop damage rating CORN.
In [3]: df
Out[3]:
                                   compound                           measured_target           property_label  observed
0  CC1CCCC(C)N1NC(=O)c1cc(-n2c(=O)cc(C(F)(F)F)n(C)c2=S)c(F)cc1Cl (stereo not shown)  field corn (Zea mays L., var. Dekalb 535, CORN)  crop damage rating CORN        25
1  CC(=NN=C(OS(C)(=O)=O)c1cc(-n2c(=O)cc(C(F)(F)F)n(C)c2=O)c(F)cc1Cl)C(C)(C)C  field corn (Zea mays L., var. Dekalb 535, CORN)  crop damage rating CORN        50
2  Cn1c(C(F)(F)F)cc(=O)n(-c2cc(C(=O)NNC(=O)OC(C)(C)C)c(Cl)cc2F)c1=O  field corn (Zea mays L., var. Dekalb 535, CORN)  crop damage rating CORN         0
3  CN1CCN(NC(=O)c2cc(-n3c(=O)cc(C(F)(F)F)n(C)c3=S)c(F)cc2Cl)CC1  field corn (Zea mays L., var. Dekalb 535, CORN)  crop damage rating CORN         0
4  CC1CCCC(C)N1NC(=O)c1cc(-n2c(=O)cc(C(F)(F)F)n(C)c2=O)c(F)cc1Cl (stereo not shown)  field corn (Zea mays L., var. Dekalb 535, CORN)  crop damage rating CORN       100

Below are some compounds; for each one, tell me its crop damage rating CORN.
1. CN(NC(=O)c1cc(-n2c(=O)cc(C(F)(F)F)n(C)c2=O)c(F)cc1Cl)c1ccccc1
2. CC(=O)OC(=NN(C)C)c1cc(-n2c(=O)cc(C(F)(F)F)n(C)c2=O)ccc1Cl

Response line:
1: 10; 2: 25

====

System: green foxtail (Setaria viridis, SETVI)
MEASUREMENT PROTOCOL: Greenhouse herbicide screen, post-emerge application, phytotoxicity rating
Type: in vivo
MEASUREMENT CONTEXT: POST emergent, 250 g ai/ha, 14 days after application, scale 0-100
PROPERTY LABEL: phytotoxicity rating SETVI
Answers are plain numbers.

                              sample_smiles                         measured_target              property_label  observed
0  CC(=NNC(=O)c1cc(-n2c(=O)cc(C(F)(F)F)n(C)c2=O)c(F)cc1Cl)C(C)(C)C  green foxtail (Setaria viridis, SETVI)  phytotoxicity rating SETVI        55
1  CN(N=C(C(C)(C)C)C(C)(C)C)C(=O)c1cc(-n2c(=O)cc(C(F)(F)F)n(C)c2=O)c(F)cc1Cl  green foxtail (Setaria viridis, SETVI)  phytotoxicity rating SETVI        75
2  C#CCOC(=NN=C(C(C)(C)C)C(C)(C)C)c1cc(-n2c(=O)cc(C(F)(F)F)n(C)c2=O)c(F)cc1Cl  green foxtail (Setaria viridis, SETVI)  phytotoxicity rating SETVI        55

Now for a further compound.
Prompt line: Would you kindly share the measured phytotoxicity rating SETVI for CC(=O)OC(=NN(C)C)c1cc(-n2c(=O)cc(C(F)(F)F)n(C)c2=O)ccc1Cl ?
Response line: 90

====

System: large crabgrass (Digitaria sanguinalis, DIGSA)
MEASUREMENT PROTOCOL: Greenhouse herbicide screen, post-emerge application, phytotoxicity rating
Type: in vivo
MEASUREMENT CONTEXT: POST emergent, 250 g ai/ha, 14 days after application, scale 0-100
PROPERTY LABEL: phytotoxicity rating DIGSA
Numbers only.

Below: 4 compounds and their reported phytotoxicity rating DIGSA.
>>> print(df.to_string())
                                   compound                           measured_target  observed
0  CN(N=C(C(C)(C)C)C(C)(C)C)C(=O)c1cc(-n2c(=O)cc(C(F)(F)F)n(C)c2=O)c(F)cc1Cl  large crabgrass (Digitaria sanguinalis, DIGSA)        60
1  CC(=O)OC(=NN(C)C)c1cc(-n2c(=O)cc(C(F)(F)F)n(C)c2=O)ccc1Cl  large crabgrass (Digitaria sanguinalis, DIGSA)       100
2  CC1CCCC(C)N1NC(=O)c1cc(-n2c(=O)cc(C(F)(F)F)n(C)c2=S)c(F)cc1Cl (stereo not drawn)  large crabgrass (Digitaria sanguinalis, DIGSA)        10
3  CC(=NNC(=O)c1cc(-n2c(=O)cc(C(F)(F)F)n(C)c2=O)c(F)cc1Cl)C(C)(C)C  large crabgrass (Digitaria sanguinalis, DIGSA)        80

Below are some compounds; for each one, tell me its phytotoxicity rating DIGSA.
1. Cn1c(C(F)(F)F)cc(=O)n(-c2cc(C(=O)NNC(=O)OC(C)(C)C)c(Cl)cc2F)c1=O
2. CC1CCCC(C)N1N=C(OC(=O)C(Cl)Cl)c1cc(-n2c(=O)cc(C(F)(F)F)n(C)c2=O)c(F)cc1Cl (stereo not drawn)

Response line:
[35, 75]

Below are some compounds; for each one, tell me its phytotoxicity rating DIGSA.
1. COC(=NN=C(C(C)(C)C)C(C)(C)C)c1cc(-n2c(=O)cc(C(F)(F)F)n(C)c2=O)c(F)cc1Cl
2. CC1CCCC(C)N1NC(=O)c1cc(-n2c(=O)cc(C(F)(F)F)n(C)c2=O)c(F)cc1Cl (stereo not drawn)
3. Cn1c(C(F)(F)F)cc(=O)n(-c2cc(C(=O)NN3CCCC3)c(Cl)cc2F)c1=O
4. CC(=O)OC(=NN1C(C)CCCC1C)c1cc(-n2c(=O)cc(C(F)(F)F)n(C)c2=O)c(F)cc1Cl (stereo not drawn)
5. CN1CCN(NC(=O)c2cc(-n3c(=O)cc(C(F)(F)F)n(C)c3=S)c(F)cc2Cl)CC1
6. CN(NC(=O)c1cc(-n2c(=O)cc(C(F)(F)F)n(C)c2=O)c(F)cc1Cl)c1ccccc1
7. Cn1c(C(F)(F)F)cc(=O)n(-c2cc(C(=O)NN=C(c3ccccc3)c3ccccc3)c(Cl)cc2F)c1=O

Response line:
1: 99; 2: 98; 3: 55; 4: 99; 5: 0; 6: 95; 7: 50

====

Please go through the items and note down their phytotoxicity rating AMBEL.
Test system: common ragweed (Ambrosia artemisiifolia L., AMBEL)
MEASUREMENT PROTOCOL: Greenhouse herbicide screen, post-emerge application, phytotoxicity rating
Type: in vivo
MEASUREMENT CONTEXT: POST emergent, 63 g ai/ha, 14 days after application, scale 0-100

Below are some molecules; for each one, tell me its phytotoxicity rating AMBEL.
1. CC(=O)OC(=NN1C(C)CCCC1C)c1cc(-n2c(=O)cc(C(F)(F)F)n(C)c2=O)c(F)cc1Cl (stereo not shown) [Compound 4-9]
2. Cn1c(C(F)(F)F)cc(=O)n(-c2cc(C(=O)NN(Cc3ccccc3)Cc3ccccc3)c(Cl)cc2F)c1=O [Compound 1-29]
3. COC(=NN=C(C(C)(C)C)C(C)(C)C)c1cc(-n2c(=O)cc(C(F)(F)F)n(C)c2=O)c(F)cc1Cl [Compound 5-6]
4. CC(=O)OC(=NN(C)C)c1cc(-n2c(=O)cc(C(F)(F)F)n(C)c2=O)ccc1Cl [Compound 4-4]

Response line:
60
75
35
75

====

Please go through the items and note down their phytotoxicity rating SETVI.
Tested on: green foxtail (Setaria viridis, SETVI)
MEASUREMENT PROTOCOL: Greenhouse herbicide screen, post-emerge application, phytotoxicity rating
Assay type: in vivo
MEASUREMENT CONTEXT: POST emergent, 250 g ai/ha, 14 days after application, scale 0-100

                                   compound  observed
0  CC(=O)OC(=NN1C(C)CCCC1C)c1cc(-n2c(=O)cc(C(F)(F)F)n(C)c2=O)c(F)cc1Cl (stereo not shown) [Compound 4-9]       100
1  Cn1c(C(F)(F)F)cc(=O)n(-c2cc(C(=O)NN=C(C(C)(C)C)C(C)(C)C)c(Cl)cc2F)c1=O [Compound 6-4]       100
2  CC1CCCC(C)N1NC(=O)c1cc(-n2c(=O)cc(C(F)(F)F)n(C)c2=S)c(F)cc1Cl (stereo not shown) [Compound 1-15]        55
3  COC(=NN=C(C(C)(C)C)C(C)(C)C)c1cc(-n2c(=O)cc(C(F)(F)F)n(C)c2=O)c(F)cc1Cl [Compound 5-6]       100
4  Cn1c(C(F)(F)F)cc(=O)n(-c2cc(C(=O)NN=C(c3ccccc3)c3ccccc3)c(Cl)cc2F)c1=O [Compound 6-15]        60

Below are some compounds; for each one, tell me its phytotoxicity rating SETVI.
1. CN1CCN(NC(=O)c2cc(-n3c(=O)cc(C(F)(F)F)n(C)c3=S)c(F)cc2Cl)CC1 [Compound 1-14]
2. CC1CCCC(C)N1NC(=O)c1cc(-n2c(=O)cc(C(F)(F)F)n(C)c2=O)c(F)cc1Cl (stereo not shown) [Compound 1-16]

Response line:
1: 0; 2: 99
